- target: Procathepsin L (Homo sapiens, UniProt P07711)
- Sequence (P07711 whole entry): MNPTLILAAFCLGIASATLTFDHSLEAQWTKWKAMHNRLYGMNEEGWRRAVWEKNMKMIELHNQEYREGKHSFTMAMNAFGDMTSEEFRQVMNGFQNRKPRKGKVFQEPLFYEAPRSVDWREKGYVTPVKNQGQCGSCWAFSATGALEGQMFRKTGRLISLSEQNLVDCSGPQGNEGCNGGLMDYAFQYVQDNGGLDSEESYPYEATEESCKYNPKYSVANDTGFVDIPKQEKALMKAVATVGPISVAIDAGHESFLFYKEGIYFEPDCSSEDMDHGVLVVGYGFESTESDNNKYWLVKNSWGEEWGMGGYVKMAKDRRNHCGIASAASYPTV
- experiment.description: Inhibition of Cathepsin L (unknown origin)
Where a SMILES comes first, the peptide text is derived from it. The star is where a group is joined. Cbz = O=C(OCc1ccccc1)*
measured.attribute: IC50

>>> df
                                   compound  measured_attribute   result
0  CC(C)C[C@@H](C=O)NC(=O)[C@H](CC(C)C)NC(=O)[C@H](CC(C)C)NC(=O)OCc1ccccc1 [MG-132] (Cbz-Leu-Leu-Leu-aldehyde)                IC50  12.3 nM
